// provenance: paper PMC6719172

Biological target: CpLIP2 lipase (Candida parapsilosis, UniProt Q8NIN8)
Sequence (Q8NIN8 entry or part of it): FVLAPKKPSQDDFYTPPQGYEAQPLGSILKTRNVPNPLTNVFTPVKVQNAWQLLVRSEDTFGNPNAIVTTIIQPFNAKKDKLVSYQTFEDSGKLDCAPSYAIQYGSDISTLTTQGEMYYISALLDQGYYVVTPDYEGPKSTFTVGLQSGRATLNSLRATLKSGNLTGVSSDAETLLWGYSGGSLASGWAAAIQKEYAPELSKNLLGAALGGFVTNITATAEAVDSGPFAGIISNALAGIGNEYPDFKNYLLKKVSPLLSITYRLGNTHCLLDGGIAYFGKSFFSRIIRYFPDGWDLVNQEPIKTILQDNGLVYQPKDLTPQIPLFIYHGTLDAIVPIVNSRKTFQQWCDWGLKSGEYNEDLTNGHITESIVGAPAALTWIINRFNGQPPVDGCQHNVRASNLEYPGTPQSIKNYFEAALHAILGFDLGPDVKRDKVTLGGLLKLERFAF
Assay: Quenching of CpLIP2 intrinsic tryptophan fluorescence by flavonols (Stern–Volmer, Lehrer, van't Hoff analysis)
Format: binding
Conditions: 308 K
quantity_measured: n (number of binding sites)
# respond with the number and nothing more

[in] Any idea what its n (number of binding sites) is? The compound is "O=c1c(O)c(-c2ccc(O)c(O)c2)oc2cc(O)cc(O)c12"
[out] 0.77

[in] Any idea what its n (number of binding sites) is? The compound is "O=c1c(O)c(-c2cc(O)c(O)c(O)c2)oc2cc(O)cc(O)c12"
[out] 0.46

[in] Any idea what its n (number of binding sites) is? The compound is "O=c1c(O)c(-c2ccccc2)oc2cc(O)cc(O)c12"
[out] 0.63

[in] Any idea what its n (number of binding sites) is? The compound is "O=c1c(O)c(-c2ccc(O)cc2)oc2cc(O)cc(O)c12"
[out] 0.63

----------
Target: CpLIP2 lipase (Candida parapsilosis)
Experiment: Fluorescence resonance energy transfer between CpLIP2 and flavonols (Förster theory)
Type: binding
Conditions: 2.5 µM, 308 K, pH 7.0
quantity_measured: E (energy transfer efficiency)
# respond with the number and nothing more

[in] Any idea what its E (energy transfer efficiency) is? The molecule is "O=c1c(O)c(-c2cc(O)c(O)c(O)c2)oc2cc(O)cc(O)c12"
[out] 0.23

[in] Any idea what its E (energy transfer efficiency) is? The molecule is "O=c1c(O)c(-c2ccccc2)oc2cc(O)cc(O)c12"
[out] 0.24

[in] Any idea what its E (energy transfer efficiency) is? The molecule is "O=c1c(O)c(-c2ccc(O)cc2)oc2cc(O)cc(O)c12"
[out] 0.12

[in] Any idea what its E (energy transfer efficiency) is? The molecule is "O=c1c(O)c(-c2ccc(O)c(O)c2)oc2cc(O)cc(O)c12"
[out] 0.06

----------
Biological target: CpLIP2 lipase (Candida parapsilosis, UniProt Q8NIN8)
Assay: Quenching of CpLIP2 intrinsic tryptophan fluorescence by flavonols (Stern–Volmer, Lehrer, van't Hoff analysis)
Format: binding
Conditions: 318 K; Lehrer equation
quantity_measured: KSV (accessible), Stern–Volmer quenching constant of the exposed W residues (L/mol)
Number in L/mol, nothing else.

[in] Any idea what its KSV (accessible), Stern–Volmer quenching constant of the exposed W residues is? The compound is "O=c1c(O)c(-c2ccc(O)c(O)c2)oc2cc(O)cc(O)c12"
[out] 70000

[in] Any idea what its KSV (accessible), Stern–Volmer quenching constant of the exposed W residues is? The compound is "O=c1c(O)c(-c2ccccc2)oc2cc(O)cc(O)c12"
[out] 290000

[in] Any idea what its KSV (accessible), Stern–Volmer quenching constant of the exposed W residues is? The compound is "O=c1c(O)c(-c2ccc(O)cc2)oc2cc(O)cc(O)c12"
[out] 150000

[in] Any idea what its KSV (accessible), Stern–Volmer quenching constant of the exposed W residues is? The compound is "O=c1c(O)c(-c2cc(O)c(O)c(O)c2)oc2cc(O)cc(O)c12"
[out] 320000

----------
Molecular target: CpLIP2 lipase (Candida parapsilosis, UniProt Q8NIN8)
Assay: Quenching of CpLIP2 intrinsic tryptophan fluorescence by flavonols (Stern–Volmer, Lehrer, van't Hoff analysis)
Format: binding
Details: van't Hoff plot, 298–328 K
quantity_measured: ΔS (entropy changes)

[in] Any idea what its ΔS (entropy changes) is? The molecule is O=c1c(O)c(-c2ccc(O)c(O)c2)oc2cc(O)cc(O)c12 [QUE, quercetin]
[out] 0.14 kJ·mol^−1·K^−1

[in] Any idea what its ΔS (entropy changes) is? The molecule is O=c1c(O)c(-c2cc(O)c(O)c(O)c2)oc2cc(O)cc(O)c12 [MYR, myricetin]
[out] 0.10 kJ·mol^−1·K^−1

[in] Any idea what its ΔS (entropy changes) is? The molecule is O=c1c(O)c(-c2ccccc2)oc2cc(O)cc(O)c12 [GAL, galangin]
[out] 0.28 kJ·mol^−1·K^−1

[in] Any idea what its ΔS (entropy changes) is? The molecule is O=c1c(O)c(-c2ccc(O)cc2)oc2cc(O)cc(O)c12 [KAE, kaempferol]
[out] 0.13 kJ·mol^−1·K^−1
